assay: inhibitors of GR-EGFP nuclear translocation, primary screen, dynein cargo transport inhibitor project, imaging, high-content, 3617.4 mouse cells (AID 1381); conditions: measured here: cell count per field, at 20 µM, stimulated with dexamethasone, 1 µM
The campaign covered roughly 220,000 compounds. About 1,000 (0.45%) were called active. For the sample, actives were picked, then their nearest neighbours and some compounds at random.
Entry flag: Fulfilled if z-score reaches -0.3; Not fulfilled if it does not.

- O=S1(=O)CC/C(=N\Nc2ccc(F)cc2)c2ccsc21: Fulfilled
- O=C(Nc1cccc([N+](=O)[O-])c1)Nc1ccc(Cl)cn1: Not fulfilled
- O=C(Nn1c(SCc2ccc([N+](=O)[O-])cc2)nc2ccccc2c1=O)c1ccc(F)cc1: Fulfilled
- Cc1[nH]c2ccccc2c1C(=O)COC(=O)c1c(-c2ccccc2)noc1C: Fulfilled
- Cc1nc(-c2ccccc2)sc1C(=O)/C=C/c1ccccc1: Fulfilled
- O=C1/C(=C/c2ccc3c(c2)OCO3)CCC/C1=C\c1ccc2c(c1)OCO2: Not fulfilled
- CCOC(=O)C1=C(C)OC(N)=C(C#N)C1c1cncc(-c2ccc(F)cc2)c1 (stereo unspecified): Fulfilled
- Cc1cc(C)c(C#N)c(SCc2[nH]nc3c2C(c2ccccc2)C(C#N)=C(N)O3)n1 (stereo unspecified): Fulfilled
- O=C(Nc1ccn(Cc2ccccc2)n1)c1n[nH]c([N+](=O)[O-])c1Cl: Not fulfilled
- COc1cccc(C(=O)Oc2cc(C)[nH]c(=O)c2[N+](=O)[O-])c1: Not fulfilled
- Cc1ccc2nc(C)c3c(c2c1)N(c1ccccc1)CC3: Fulfilled
- CCOC(=O)C1=C(CC)OC(N)=C(C#N)C1c1ccc(F)cc1F (stereo unspecified): Not fulfilled
- CC(=O)Nc1cccc([N+](=O)[O-])c1: Fulfilled
- Cc1c(C#N)c(NC(=O)c2ccccc2)n(Cc2ccccc2)c1C: Fulfilled
- OCC(CO)(CO)NCc1ccc(-c2ccccc2)cc1: Fulfilled
- C/C(CC(=O)Nc1cccc(F)c1)=N\NC(=O)C(=O)NC1CCCCC1: Fulfilled
- CCCSC(=S)NC1CCS(=O)(=O)C1 (stereo unspecified): Fulfilled
- Cc1c(C(=O)Nc2ccccc2)sc2nc3n(c(=O)c12)CCCCC3: Fulfilled
- O=C1c2ccccc2C(=O)N1Cc1cc(-c2ccccc2Cl)no1: Fulfilled
- Cc1nn(C)c(Oc2ccccc2)c1[N+](=O)[O-]: Fulfilled
- CC(=O)NCC(=O)N1CCCC(C(=O)c2ccc3c4c(cccc24)CC3)C1 (stereo unspecified): Fulfilled
- COc1ccc(-n2cnc3cc(C(=O)NC4CCCC4)ccc32)cc1: Not fulfilled
- Cc1ccc(CN2CCC(N3CCC(C(=O)NCC4CCCO4)CC3)CC2)o1 (stereo unspecified): Fulfilled
- CCNC(=S)Nc1ccc(OC(F)(F)F)cc1: Fulfilled
- O=S1(=O)CCC(NC(=S)SCc2ccccc2Br)C1 (stereo unspecified): Not fulfilled
- O=Cc1ccc(Oc2cccc(C(F)(F)F)c2)nc1: Not fulfilled
- COC(=O)/C=C\C(=O)Nc1cccc([N+](=O)[O-])c1: Not fulfilled
- Cc1ccccc1NC(=S)Nc1cccc([N+](=O)[O-])c1: Fulfilled
- Cc1ccc(Cn2c(NC(=O)c3ccco3)nc3ccccc32)cc1: Fulfilled
- COc1cc(CO)c(C2(CO)CCCC2)cc1OC: Not fulfilled
- Cc1ccc(O)c(CCc2ccccc2)n1: Not fulfilled
- CS(=O)(=O)c1ccc(Cl)c(NC(=O)Nc2ccccc2)c1: Not fulfilled
- O=C(CSc1ccccc1F)NC1CCS(=O)(=O)C1 (stereo unspecified): Fulfilled
- Fc1ccccc1/C=C1\CCCC2=C1Nc1ncnn1C2c1ccccc1F (stereo unspecified): Fulfilled
- C[C@@H]1C[C@@H]2O[C@H]2/C=C\C=C\C(=O)Cc2c(Cl)c(O)cc(O)c2C(=O)O1: Fulfilled
- Cc1cccc(OP(=O)(Nc2c(C)n(C)n(-c3ccccc3)c2=O)Oc2cccc(C)c2)c1: Not fulfilled
- Cc1ccccc1C(=O)Nc1ccc(N2CCCCCC2)cc1: Not fulfilled
- Cc1nnc(SCCCCSc2nnc(C)c(=O)[nH]2)[nH]c1=O: Not fulfilled
- Cn1cnnc1SCC(=O)NNC(=O)COc1ccc(Br)cc1: Fulfilled
- C=CCOC(=O)C1=C(C)OC(N)=C(C#N)C1c1ccc(F)cc1 (stereo unspecified): Fulfilled
- Nn1cnnc1N/N=C/c1cc([N+](=O)[O-])c(Cl)cc1Cl: Not fulfilled
- O=C(NNC(=O)c1ccccc1[N+](=O)[O-])Nc1ccccc1C(F)(F)F: Fulfilled
- Cc1[nH]c(=O)c(C(=O)/C=C/c2ccccc2)c2c1CCCC2: Fulfilled
- O=C(CCl)Nc1cccc(CP(=O)(c2ccccc2)c2ccccc2)c1: Fulfilled
- Clc1cccc(-c2nc3nc4ccccc4nc3n2Cc2ccco2)c1: Fulfilled
- COc1ccc2c(c1)cc1n2CCN=C1NN: Not fulfilled
